Target: canine FcRn (FcRn large subunit with canine beta-2-microglobulin) (canine)
Assay: SPR pH 7.4, FcRn coupled at high density, IgG 400 nM
This listing pairs binders with measured Kd.
measurementName: Kd (nM)

anti-NGF canine IgGB antibody, Fc variant A426Y + T286L (antibody, part only; not given: Anti-NGF variable domains, not shown: another chain or arm of the molecule; small tags and cut ends) Fc: APEMLGGPSVFIFPPKPKDTLLIARTPEVTCVVVDLDPEDPEVQISWFVDGKQMQLAKTQPREEQFNGTYRVVSVLPIGHQDWLKGKQFTCKVNNKALPSPIERTISKARGQAHQPSVYVLPPSREELSKNTVSLTCLIKDFFPPDIDVEWQSNGQQEPESKYRTTPPQLDEDGSYFLYSKLSVDKSRWQRGDTFICYVMHEALHNHYTQESLSHSPGK = 1120
anti-NGF canine IgGB antibody, Fc variant N434Y (antibody, part only; not given: Anti-NGF variable domains, not shown: another chain or arm of the molecule) Fc: APEMLGGPSVFIFPPKPKDTLLIARTPEVTCVVVDLDPEDPEVQISWFVDGKQMQTAKTQPREEQFNGTYRVVSVLPIGHQDWLKGKQFTCKVNNKALPSPIERTISKARGQAHQPSVYVLPPSREELSKNTVSLTCLIKDFFPPDIDVEWQSNGQQEPESKYRTTPPQLDEDGSYFLYSKLSVDKSRWQRGDTFICAVMHEALHYHYTQESLSHSPGK = 80.2
anti-NGF canine IgGB antibody, Fc variant A426H + T286L (antibody, part only; not given: Anti-NGF variable domains, not shown: another chain or arm of the molecule; small tags and cut ends) Fc: APEMLGGPSVFIFPPKPKDTLLIARTPEVTCVVVDLDPEDPEVQISWFVDGKQMQLAKTQPREEQFNGTYRVVSVLPIGHQDWLKGKQFTCKVNNKALPSPIERTISKARGQAHQPSVYVLPPSREELSKNTVSLTCLIKDFFPPDIDVEWQSNGQQEPESKYRTTPPQLDEDGSYFLYSKLSVDKSRWQRGDTFICHVMHEALHNHYTQESLSHSPGK = 1600
anti-NGF canine IgGB antibody, Fc variant A426H + T286Y (antibody, part only; not given: anti-NGF variable domains and light chain, not shown: another chain or arm of the molecule; small tags and cut ends) Fc: APEMLGGPSVFIFPPKPKDTLLIARTPEVTCVVVDLDPEDPEVQISWFVDGKQMQYAKTQPREEQFNGTYRVVSVLPIGHQDWLKGKQFTCKVNNKALPSPIERTISKARGQAHQPSVYVLPPSREELSKNTVSLTCLIKDFFPPDIDVEWQSNGQQEPESKYRTTPPQLDEDGSYFLYSKLSVDKSRWQRGDTFICHVMHEALHNHYTQESLSHSPGK = 940
